Origin of values: the supplement of paper PMC10307832

system: CAL-12T; assay: relative viability (nuclei count vs DMSO), 5 days (fraction); higher = more cells survive; conditions: first compound 0.1 µM

{"columns": ["compound", "testedSystem", "relative viability"],
 "data": [
  ["O=c1cc(N2CCOCC2)oc2c(-c3cccc4c3sc3ccccc34)cccc12 + Cc1cc(Nc2cc(N3CCN(C)CC3)nc(Sc3ccc(NC(=O)C4CC4)cc3)n2)n[nH]1 [Tozasertib] (partner 0.1 µM)", "CAL-12T", 0.347],
  ["CCN(CC)CCCCNc1ncc2cc(-c3cc(OC)cc(OC)c3)c(NC(=O)NC(C)(C)C)nc2n1 + CS(=O)(=O)N1CCN(Cc2cc3nc(-c4cccc5[nH]ncc45)nc(N4CCOCC4)c3s2)CC1 [Pictilisib] (partner 1 µM)", "CAL-12T", 0.386]
]}

----------
system: NCI-H1395; assay: relative viability (nuclei count vs DMSO), 5 days (fraction); higher = more cells survive; conditions: first compound 0.08 µM
Entries and their relative viability

{"columns": ["molecule", "testedSystem", "relative viability"],
 "data": [
  ["O=c1cc(-c2cccc3c2Sc2ccccc2S3)oc(N2CCOCC2)c1 + COc1cccc2cc(-c3nc([C@H]4CC[C@H](C(=O)O)CC4)n4ncnc(N)c34)[nH]c12 [OSI-027] (partner 0.5 µM)", "NCI-H1395", 0.594],
  ["O=c1cc(-c2cccc3c2Sc2ccccc2S3)oc(N2CCOCC2)c1 + N=C(N)NC(=N)NCCc1ccccc1 [Phenformin] (partner 250 µM)", "NCI-H1395", 0.462],
  ["COc1nc(C)cnc1NS(=O)(=O)c1cccnc1-c1ccc(-c2nnco2)cc1 [Zibotentan] + CCNC(=O)c1noc(-c2cc(C(C)C)c(O)cc2O)c1-c1ccc(CN2CCOCC2)cc1 [Luminespib] (partner 0.01 µM)", "NCI-H1395", 0.725],
  ["COc1nc(C)cnc1NS(=O)(=O)c1cccnc1-c1ccc(-c2nnco2)cc1 [Zibotentan] + C[C@]1(O)C[C@@H](c2nc(-c3ccc4ccc(-c5ccccc5)nc4c3)c3c(N)nccn32)C1 [Linsitinib] (partner 1 µM)", "NCI-H1395", 1.39],
  ["O=c1cc(-c2cccc3c2Sc2ccccc2S3)oc(N2CCOCC2)c1 + Cc1cc(Nc2cc(N3CCN(C)CC3)nc(Sc3ccc(NC(=O)C4CC4)cc3)n2)n[nH]1 [Tozasertib] (partner 0.1 µM)", "NCI-H1395", 0.755]
]}

----------
tested on: NCI-H1437; assay: relative viability (nuclei count vs DMSO), 5 days (fraction); higher = more cells survive; details: first compound 0.6325 µM
Entries and their relative viability

{"columns": ["molecule", "relative viability"],
 "data": [
  ["COCC1(CO)C(=O)C2CCN1CC2 (centres undefined) [PRIMA-1MET] + C[C@]1(O)C[C@@H](c2nc(-c3ccc4ccc(-c5ccccc5)nc4c3)c3c(N)nccn32)C1 [Linsitinib] (partner 1 µM)", 0.982],
  ["COCC1(CO)C(=O)C2CCN1CC2 (centres undefined) [PRIMA-1MET] + CC(=O)c1c(C)c2cnc(Nc3ccc(N4CCNCC4)cn3)nc2n(C2CCCC2)c1=O [Palbociclib] (partner 0.5 µM)", 0.313],
  ["COCC1(CO)C(=O)C2CCN1CC2 (centres undefined) [PRIMA-1MET] + CCNC(=O)c1noc(-c2cc(C(C)C)c(O)cc2O)c1-c1ccc(CN2CCOCC2)cc1 [Luminespib] (partner 0.01 µM)", 1.08],
  ["COCC1(CO)C(=O)C2CCN1CC2 (centres undefined) [PRIMA-1MET] + Nc1nc2[nH]cc(CCc3ccc(C(=O)N[C@@H](CCC(=O)O)C(=O)O)cc3)c2c(=O)[nH]1 [Pemetrexed] (partner 0.2 µM)", 0.284]
]}

----------
Entries and their relative viability
system: ABC-1; test: relative viability (nuclei count vs DMSO), 5 days (fraction); higher = more cells survive; conditions: first compound 0.253 µM
reportedProperty: relative viability

{"columns": ["compound", "testedSystem", "assayValue"],
 "data": [
  ["O=c1cc(-c2cccc3c2Sc2ccccc2S3)oc(N2CCOCC2)c1 + Cc1nc(Nc2ncc(C(=O)Nc3c(C)cccc3Cl)s2)cc(N2CCN(CCO)CC2)n1 [Dasatinib] (partner 0.075 µM)", "ABC-1", 0.651],
  ["O=c1cc(-c2cccc3c2Sc2ccccc2S3)oc(N2CCOCC2)c1 + Cc1nc(NC(=O)N2CCC[C@H]2C(N)=O)sc1-c1ccnc(C(C)(C)C(F)(F)F)c1 [Alpelisib] (partner 2 µM)", "ABC-1", 1.14],
  ["COc1nc(C)cnc1NS(=O)(=O)c1cccnc1-c1ccc(-c2nnco2)cc1 [Zibotentan] + O=C(c1cc(Cc2n[nH]c(=O)c3ccccc23)ccc1F)N1CCN(C(=O)C2CC2)CC1 [Olaparib] (partner 8 µM)", "ABC-1", 0.527]
]}

----------
tested on: LK-2; assay: relative viability (nuclei count vs DMSO), 5 days (fraction); higher = more cells survive; conditions: first compound 2.53 µM
Field: label. Allowed values: condition met (relative viability < 0.2) or condition not met (relative viability >= 0.2).

{"columns": ["molecule", "assignedCategory"],
 "data": [
  ["COc1nc(C)cnc1NS(=O)(=O)c1cccnc1-c1ccc(-c2nnco2)cc1 [Zibotentan] + COc1cccc2cc(-c3nc([C@H]4CC[C@H](C(=O)O)CC4)n4ncnc(N)c34)[nH]c12 [OSI-027] (partner 0.5 µM)", "condition not met"],
  ["O=c1cc(-c2cccc3c2Sc2ccccc2S3)oc(N2CCOCC2)c1 + Cc1nc(Nc2ncc(C(=O)Nc3c(C)cccc3Cl)s2)cc(N2CCN(CCO)CC2)n1 [Dasatinib] (partner 0.075 µM)", "condition met"],
  ["COc1nc(C)cnc1NS(=O)(=O)c1cccnc1-c1ccc(-c2nnco2)cc1 [Zibotentan] + O=C(CCCCCCC(=O)Nc1ccccc1)NO [Vorinostat] (partner 1 µM)", "condition not met"],
  ["O=c1cc(-c2cccc3c2Sc2ccccc2S3)oc(N2CCOCC2)c1 + N=C(N)NC(=N)NCCc1ccccc1 [Phenformin] (partner 250 µM)", "condition not met"],
  ["O=c1cc(-c2cccc3c2Sc2ccccc2S3)oc(N2CCOCC2)c1 + O=C(c1cc(Cc2n[nH]c(=O)c3ccccc23)ccc1F)N1CCN(C(=O)C2CC2)CC1 [Olaparib] (partner 8 µM)", "condition not met"],
  ["O=c1cc(-c2cccc3c2Sc2ccccc2S3)oc(N2CCOCC2)c1 + CC1(C)CCC(c2ccc(Cl)cc2)=C(CN2CCN(c3ccc(C(=O)NS(=O)(=O)c4ccc(N[C@H](CCN5CCOCC5)CSc5ccccc5)c(S(=O)(=O)C(F)(F)F)c4)cc3)CC2)C1 [Navitoclax] (partner 0.5 µM)", "condition not met"],
  ["O=c1cc(-c2cccc3c2Sc2ccccc2S3)oc(N2CCOCC2)c1 + O=C(CCCCCCC(=O)Nc1ccccc1)NO [Vorinostat] (partner 1 µM)", "condition not met"],
  ["O=c1cc(-c2cccc3c2Sc2ccccc2S3)oc(N2CCOCC2)c1 + CCNC(=O)c1noc(-c2cc(C(C)C)c(O)cc2O)c1-c1ccc(CN2CCOCC2)cc1 [Luminespib] (partner 0.01 µM)", "condition not met"],
  ["COc1nc(C)cnc1NS(=O)(=O)c1cccnc1-c1ccc(-c2nnco2)cc1 [Zibotentan] + CS(=O)(=O)CCNCc1ccc(-c2ccc3ncnc(Nc4ccc(OCc5cccc(F)c5)c(Cl)c4)c3c2)o1 [Lapatinib] (partner 2 µM)", "condition not met"],
  ["COc1nc(C)cnc1NS(=O)(=O)c1cccnc1-c1ccc(-c2nnco2)cc1 [Zibotentan] + CCNC(=O)c1noc(-c2cc(C(C)C)c(O)cc2O)c1-c1ccc(CN2CCOCC2)cc1 [Luminespib] (partner 0.01 µM)", "condition met"],
  ["COc1nc(C)cnc1NS(=O)(=O)c1cccnc1-c1ccc(-c2nnco2)cc1 [Zibotentan] + CC(=O)Nc1cccc(-n2c(=O)n(C3CC3)c(=O)c3c(Nc4ccc(I)cc4F)n(C)c(=O)c(C)c32)c1 [Trametinib] (partner 0.02 µM)", "condition not met"]
]}

----------
system: NCI-H520; experiment: relative viability (nuclei count vs DMSO), 5 days (fraction); higher = more cells survive; details: first compound 2.53 µM
Field: label. Allowed values: Fulfilled (relative viability < 0.7) or Not fulfilled (relative viability >= 0.7).

{"columns": ["compound", "assignedCategory"],
 "data": [
  ["COc1nc(C)cnc1NS(=O)(=O)c1cccnc1-c1ccc(-c2nnco2)cc1 [Zibotentan] + C[C@]1(O)C[C@@H](c2nc(-c3ccc4ccc(-c5ccccc5)nc4c3)c3c(N)nccn32)C1 [Linsitinib] (partner 1 µM)", "Not fulfilled"],
  ["COc1nc(C)cnc1NS(=O)(=O)c1cccnc1-c1ccc(-c2nnco2)cc1 [Zibotentan] + COc1cccc2cc(-c3nc([C@H]4CC[C@H](C(=O)O)CC4)n4ncnc(N)c34)[nH]c12 [OSI-027] (partner 0.5 µM)", "Fulfilled"],
  ["COc1nc(C)cnc1NS(=O)(=O)c1cccnc1-c1ccc(-c2nnco2)cc1 [Zibotentan] + Cc1nc(Nc2ncc(C(=O)Nc3c(C)cccc3Cl)s2)cc(N2CCN(CCO)CC2)n1 [Dasatinib] (partner 0.075 µM)", "Fulfilled"],
  ["O=c1cc(-c2cccc3c2Sc2ccccc2S3)oc(N2CCOCC2)c1 + COc1cc2c(Oc3ccc(NC(=O)C4(C(=O)Nc5ccc(F)cc5)CC4)cc3F)ccnc2cc1OCCCN1CCOCC1 [Foretinib] (partner 0.25 µM)", "Not fulfilled"],
  ["O=c1cc(-c2cccc3c2Sc2ccccc2S3)oc(N2CCOCC2)c1 + CC(=O)c1c(C)c2cnc(Nc3ccc(N4CCNCC4)cn3)nc2n(C2CCCC2)c1=O [Palbociclib] (partner 0.5 µM)", "Fulfilled"]
]}
